- TEST_METHOD_NOTES: chemical genetic growth profiling, strain panel (AID 1159580);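 also: tested at 20 µM; growth read once vehicle control cultures reached saturation at 30 °C; 1 = growth at the plate median or of vehicle wells; lower values mean less growth of the strain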
- PROTOCOL_CONDITIONS: S. cerevisiae deletion strains, growth OD, locus YMR125W, strain sto1, active compounds read low
Hit rate of the full screen: of about 5,500 compounds, about 2,000 (36%) were called active. Roughly 18% stayed inconclusive and do not appear here. The list shows a part of the results.
Recorded measurements of normalized growth, one per entry
MEASURED_PARAMETER: normalized growth

>  <MOLECULE>
COc1ccc([C@@H](C)C(=O)c2ccc(O)cc2O)cc1

>  <EXPERIMENTAL_RESULT>
0.961

$$$$
>  <MOLECULE>
COc1ccc(CC(=O)c2ccc(O)cc2O)cc1

>  <EXPERIMENTAL_RESULT>
0.997

$$$$
>  <MOLECULE>
CC(=O)CCCCn1c(=O)c2c(ncn2C)n(C)c1=O

>  <EXPERIMENTAL_RESULT>
1.02

$$$$
>  <MOLECULE>
CC(=O)c1ccc[nH]1

>  <EXPERIMENTAL_RESULT>
0.997

$$$$
>  <MOLECULE>
CON

>  <EXPERIMENTAL_RESULT>
0.987

$$$$
>  <MOLECULE>
CC1=C(C(=O)O)N2C(=O)[C@@H](NC(=O)[C@@H](N)c3ccc(O)cc3)[C@H]2SC1

>  <EXPERIMENTAL_RESULT>
1.04

$$$$
>  <MOLECULE>
COC(=O)C[C@H]1C(C)(C)[C@@H](OC(C)=O)[C@@H]2CC3=C4CC(=O)O[C@@H](c5ccoc5)[C@]4(C)CCC3[C@@]1(C)C2=O (some centres not stated)

>  <EXPERIMENTAL_RESULT>
1.01

$$$$
>  <MOLECULE>
CCCc1ncc(C[n+]2ccccc2C)c(N)n1

>  <EXPERIMENTAL_RESULT>
0.969

$$$$
>  <MOLECULE>
COc1cc2c(cc1OC)C(C)NCC2 (configuration not stated)

>  <EXPERIMENTAL_RESULT>
0.933

$$$$
>  <MOLECULE>
CC(=O)Oc1c(C)c(C)c2c(c1C)CCC(C)(CCCC(C)CCCC(C)CCCC(C)C)O2 (configuration not stated)

>  <EXPERIMENTAL_RESULT>
1

$$$$
>  <MOLECULE>
COc1cc(O)ccc1C(C)=O

>  <EXPERIMENTAL_RESULT>
1.03

$$$$
>  <MOLECULE>
Cn1c(=O)c2c(ncn2C)n(C)c1=O

>  <EXPERIMENTAL_RESULT>
0.954

$$$$

* * *

- TEST_METHOD_NOTES: chemical genetic growth profiling, strain panel (AID 1159580);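 also: tested at 20 µM; growth read once vehicle control cultures reached saturation at 30 °C; 1 = growth at the plate median or of vehicle wells; lower values mean less growth of the strain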
- PROTOCOL_CONDITIONS: S. cerevisiae deletion strains, growth OD, locus YHR013C, strain ard1, active compounds read low
Screen size: about 5,500 compounds; about 2,000 (36%) were called active. Inconclusive results (about 18%) are left out. This is one part of the list.
MEASURED_PARAMETER: normalized growth

>  <COMPOUND>
CCCC(=O)Nc1ccc(OCC(O)CNC(C)C)c(C(C)=O)c1 (stereo not drawn)

>  <EXPERIMENTAL_RESULT>
1.02

$$$$
>  <COMPOUND>
CC(=O)NC1C(O)OC(COS(=O)(=O)O)C(OC2OC(C(=O)O)C(OC3OC(CO)C(OC4OC(C(=O)O)C(O)C(O)C4OS(=O)(=O)O)C(OS(=O)(=O)O)C3NS(=O)(=O)O)C(O)C2OS(=O)(=O)O)C1O (stereo not drawn)

>  <EXPERIMENTAL_RESULT>
0.947

$$$$
>  <COMPOUND>
CCCCCC/C=C\CCCCCCCc1cccc(O)c1C(=O)O

>  <EXPERIMENTAL_RESULT>
0.956

$$$$
>  <COMPOUND>
O=C(CCc1ccc(O)cc1)c1c(O)cc(O)cc1O

>  <EXPERIMENTAL_RESULT>
0.99

$$$$
>  <COMPOUND>
COC1=CC23CCCN2CCc2cc4c(cc2C3C1O)OCO4 (stereo not drawn)

>  <EXPERIMENTAL_RESULT>
1.04

$$$$
>  <COMPOUND>
CC(=O)NS(=O)(=O)c1ccc(N)cc1

>  <EXPERIMENTAL_RESULT>
1.01

$$$$
>  <COMPOUND>
CC1(C)CC23C(=O)CCC(O)C2(C)CCC13 (stereo not drawn)

>  <EXPERIMENTAL_RESULT>
0.952

$$$$
>  <COMPOUND>
CNC(=O)N(C)c1nnc(C(C)(C)C)s1

>  <EXPERIMENTAL_RESULT>
0.972

$$$$
>  <COMPOUND>
CC(C)[C@@H]1CC[C@@H](C)C[C@H]1OC(=O)c1ccccc1

>  <EXPERIMENTAL_RESULT>
1.06

$$$$
>  <COMPOUND>
COc1ccc([C@@H](C)C(=O)c2ccc(O)cc2O)cc1

>  <EXPERIMENTAL_RESULT>
0.944

$$$$
>  <COMPOUND>
O=C1c2cccc(O)c2C(=O)c2c(O)cccc21

>  <EXPERIMENTAL_RESULT>
0.701

$$$$
>  <COMPOUND>
O=C(O)c1cc(=O)c2ccccc2[nH]1

>  <EXPERIMENTAL_RESULT>
0.958

$$$$
>  <COMPOUND>
C=CC[C@@H]1/C=C(\C)C[C@H](C)C[C@H](OC)[C@H]2O[C@@](O)(C(=O)C(=O)N3CCCC[C@H]3C(=O)O[C@H](/C(C)=C/[C@@H]3CC[C@@H](O)[C@H](OC)C3)[C@H](C)[C@@H](O)CC1=O)[C@H](C)C[C@@H]2OC

>  <EXPERIMENTAL_RESULT>
0.912

$$$$
>  <COMPOUND>
Cn1c(=O)c2c(ncn2C)n(C)c1=O

>  <EXPERIMENTAL_RESULT>
0.947

$$$$
>  <COMPOUND>
COc1cc(O)ccc1C(C)=O

>  <EXPERIMENTAL_RESULT>
1.03

$$$$
>  <COMPOUND>
NS(=O)(=O)c1cc2c(cc1Cl)NCNS2(=O)=O

>  <EXPERIMENTAL_RESULT>
0.999

$$$$
>  <COMPOUND>
CC(=O)OC1CCC23CC1(C)CCC2C(C)(C)CC3OC(C)=O (stereo not drawn)

>  <EXPERIMENTAL_RESULT>
1.01

$$$$
>  <COMPOUND>
C/C(=C\CO)CC[C@H](C)CCC[C@H](C)CCCC(C)C

>  <EXPERIMENTAL_RESULT>
0.945

$$$$
>  <COMPOUND>
CC(=O)O[C@H]1CC2CCC3C(CC[C@@]4(C)C3C[C@H]([N+]3(C)CCCCC3)[C@@H]4OC(C)=O)[C@@]2(C)C[C@@H]1N1CCCCC1 (stereo partly drawn)

>  <EXPERIMENTAL_RESULT>
1.01

$$$$
>  <COMPOUND>
NC(Cc1ccc(Cl)cc1)C(=O)O (stereo not drawn)

>  <EXPERIMENTAL_RESULT>
0.994

$$$$
>  <COMPOUND>
CC(=O)OCC1=C(C(=O)O)N2C(=O)[C@@H](NC(=O)CSc3ccncc3)[C@H]2SC1

>  <EXPERIMENTAL_RESULT>
1.03

$$$$
>  <COMPOUND>
CCC1(C2=NCCN2)Cc2ccccc2O1 (stereo not drawn)

>  <EXPERIMENTAL_RESULT>
0.964

$$$$
>  <COMPOUND>
CC(=O)Oc1c(C)c(C)c2c(c1C)CCC(C)(CCCC(C)CCCC(C)CCCC(C)C)O2 (stereo not drawn)

>  <EXPERIMENTAL_RESULT>
0.949

$$$$
>  <COMPOUND>
O=c1c(O)cccc2cc(O)c(O)c(O)c12

>  <EXPERIMENTAL_RESULT>
0.577

$$$$
>  <COMPOUND>
COC(=O)CC1C(C)(C(=O)c2ccoc2)CC2OCC34C(CC(=O)OC)C5(C)CC36OC3(C)OC1(C(OC(C)=O)C6(OC(C)=O)C5OC(=O)C(C)C)C24O3 (stereo not drawn)

>  <EXPERIMENTAL_RESULT>
0.952

$$$$
>  <COMPOUND>
O=C(O)[C@H]1/C(=C/CO)O[C@@H]2CC(=O)N21

>  <EXPERIMENTAL_RESULT>
0.957

$$$$
>  <COMPOUND>
C[C@H]1C(=O)CCC2[C@]3(C)CC[C@@]4(C)C5CC(C)(C)CC[C@]5(C)CC[C@]4(C)C3CC[C@@]21C (stereo partly drawn)

>  <EXPERIMENTAL_RESULT>
1.01

$$$$
>  <COMPOUND>
COc1ccc(NS(=O)(=O)c2ccc(N)cc2)nn1

>  <EXPERIMENTAL_RESULT>
0.987

$$$$
>  <COMPOUND>
CN1CCN(C2=Nc3cc(Cl)ccc3Nc3ccccc32)CC1

>  <EXPERIMENTAL_RESULT>
0.917

$$$$
>  <COMPOUND>
CC(C)=CCC/C(C)=C/CO

>  <EXPERIMENTAL_RESULT>
1

$$$$
>  <COMPOUND>
CC12CCC(OC(=O)c3ccccc3)CC1CCc1ccccc12 (stereo not drawn)

>  <EXPERIMENTAL_RESULT>
0.855

$$$$
>  <COMPOUND>
COCC1=C(C(=O)OC(C)OC(=O)OC(C)C)N2C(=O)[C@@H](NC(=O)/C(=N\OC)c3csc(N)n3)[C@H]2SC1 (stereo partly drawn)

>  <EXPERIMENTAL_RESULT>
0.976

$$$$
>  <COMPOUND>
Oc1cc2c(cc1O)C(c1ccccc1)CNCC2 (stereo not drawn)

>  <EXPERIMENTAL_RESULT>
0.96

$$$$
>  <COMPOUND>
CC(C)CCCC(C)N (stereo not drawn)

>  <EXPERIMENTAL_RESULT>
1.03

$$$$
>  <COMPOUND>
CNC(C)[C@@H]1CC[C@@H](N)[C@@H](OC2[C@@H](N)C[C@@H](N)[C@H](OC3OC[C@](C)(O)[C@H](NC)[C@H]3O)[C@H]2O)O1 (stereo partly drawn)

>  <EXPERIMENTAL_RESULT>
1.02

$$$$
>  <COMPOUND>
CC(=O)c1ccc[nH]1

>  <EXPERIMENTAL_RESULT>
1.01

$$$$
>  <COMPOUND>
O=C(Nc1ccc([N+](=O)[O-])cc1Cl)c1cc(Cl)ccc1O

>  <EXPERIMENTAL_RESULT>
0.627

$$$$
>  <COMPOUND>
CC(=O)OC1CCC2(O)CC1(C)CCC1C2CC1(C)C (stereo not drawn)

>  <EXPERIMENTAL_RESULT>
1.03

$$$$
